- Test system: AsPC-1 (K-Ras G12D)
- protocol: CellTiter-Glo cell viability assay
- Format: cell-based
- assay conditions: Homo sapiens, ASPC1, 120 h, read-out: AsPC-1 Cell Viability assay data IC50, K-Ras G12D, 5-day treatment
The reader will find reported IC50 values listed item by item below.

Sample answers from the record:
CCC(C)N(C)C(=O)c1cncc(-c2c3c4cc(ccc4n2CC)-c2cc(O)cc(c2)C[C@H](NC(=O)[C@H](C(C)C)N(C)C(=O)CN(C)C(=O)[C@H]2CN2)C(=O)N2CCC[C@H](N2)C(=O)OCC(C)(C)C3)c1 (some centres unmarked) = 100 to 1000 nM
CCn1c(-c2cccnc2[C@H](C)OC)c2c3cc(ccc31)-c1cc(O)cc(c1)C[C@H](NC(=O)[C@H](C(C)C)N(C)C(=O)[C@H]1CC[C@@H](C)N1C(=O)[C@H]1CN1)C(=O)N1CCC[C@H](N1)C(=O)OCC(C)(C)C2 = 1000 to 10000 nM
CCn1c(-c2cccnc2[C@H](C)OC)c2c3cc(ccc31)-c1cc(O)cc(c1)C[C@H](NC(=O)[C@H](C(C)C)N(C)C(=O)CN(C)C(=O)[C@H]1N[C@H]1C(C)C)C(=O)N1CCC[C@H](N1)C(=O)OCC(C)(C)C2 = 100 to 1000 nM
CCn1c(-c2cccnc2[C@H](C)OC)c2c3cc(ccc31)-c1cc(O)cc(c1)C[C@H](NC(=O)[C@H](C(C)C)N(C)C(=O)CN(C)C(=O)[C@@H]1N[C@H]1C1COC1)C(=O)N1CCC[C@H](N1)C(=O)OCC(C)(C)C2 = 100 to 1000 nM
CCn1c(-c2cccnc2[C@H](C)OC)c2c3cc(ccc31)-c1cc(O)cc(c1)C[C@H](NC(=O)[C@H](C(C)C)N(C)C(=O)CN(C)C(=O)[C@H]1CN1CCOC)C(=O)N1CCC[C@H](N1)C(=O)OCC(C)(C)C2 (some centres unmarked) = 100 to 1000 nM
CCn1c(-c2cccnc2[C@H](C)OC)c2c3cc(ccc31)-c1cc(O)cc(c1)C[C@H](NC(=O)[C@H](C(C)C)N(C)C(=O)CN(C)C(=O)[C@@H]1CN1CCCOC(C)=O)C(=O)N1CCC[C@H](N1)C(=O)OCC(C)(C)C2 (some centres unmarked) = 100 to 1000 nM

State the recorded IC50 for this entry: CCn1c(-c2cccnc2[C@H](C)OC)c2c3cc(ccc31)-c1cc(O)cc(c1)C[C@H](NC(=O)[C@H](C(C)C)N(C)C(=O)[C@H]1CC[C@@H](C)N1C(=O)[C@@H]1CN1)C(=O)N1CCC[C@H](N1)C(=O)OCC(C)(C)C2
1000 to 10000 nM

State the recorded IC50 for this entry: CCn1c(-c2cnccc2COC)c2c3cc(ccc31)-c1cc(O)cc(c1)C[C@H](NC(=O)[C@H](C(C)C)N(C)C(=O)CN(C)C(=O)[C@@H]1CN1Cc1ccccc1)C(=O)N1CCC[C@H](N1)C(=O)OCC(C)(C)C2 (some centres unmarked)
1000 to 10000 nM

State the recorded IC50 for this entry: CCn1c(-c2cccnc2[C@H](C)OC)c2c3cc(ccc31)-c1cc(O)cc(c1)C[C@H](NC(=O)[C@H](C(C)C)N(C)C(=O)CN(C)C(=O)[C@H]1CN1CCCC#N)C(=O)N1CCC[C@H](N1)C(=O)OCC(C)(C)C2 (some centres unmarked)
100 to 1000 nM

State the recorded IC50 for this entry: CCn1c(-c2cccnc2[C@H](C)OC)c2c3cc(ccc31)-c1cc(O)cc(c1)C[C@H](NC(=O)[C@H](C(C)C)N(C)C(=O)CN(C)C(=O)[C@@H]1N[C@@H]1C1CC1)C(=O)N1CCC[C@H](N1)C(=O)OCC(C)(C)C2
10 to 100 nM

* * *

- system tested: KRAS G12C (Homo sapiens, UniProt P01116+P62937, G12C)
- protocol: Ras-Raf disruption / FRET / MOA assay (BRAF RBD)
- Type: biochemical
- assay conditions: Ras-Raf disruption, with Cyclophilin A; read-out: KRAS G12C FRET data IC50
- Sequence (P01116 1-169 isoform P01116-2 G12C limits assumed): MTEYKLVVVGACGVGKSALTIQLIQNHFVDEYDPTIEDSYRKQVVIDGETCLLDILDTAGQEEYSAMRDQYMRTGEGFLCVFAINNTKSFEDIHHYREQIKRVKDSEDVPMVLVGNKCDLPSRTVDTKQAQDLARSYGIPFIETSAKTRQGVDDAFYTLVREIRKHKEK
- Sequence (P62937 whole entry): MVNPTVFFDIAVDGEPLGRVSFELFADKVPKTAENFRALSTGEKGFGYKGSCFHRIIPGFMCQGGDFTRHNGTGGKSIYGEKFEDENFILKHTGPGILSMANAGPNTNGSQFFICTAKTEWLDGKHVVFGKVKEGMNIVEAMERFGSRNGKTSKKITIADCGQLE
The reader will find reported IC50 values listed item by item below.

CCn1c(-c2cccnc2[C@H](C)OC)c2c3cc(ccc31)-c1cc(O)cc(c1)C[C@H](NC(=O)[C@H](C(C)C)N(C)C(=O)N1CCN(C(=O)[C@@H]3CN3)C(=O)C1)C(=O)N1CCC[C@H](N1)C(=O)OCC(C)(C)C2 [Example 197] = 10 to 100 nM
CCn1c(-c2cccnc2[C@H](C)OC)c2c3cc(ccc31)-c1cc(O)cc(c1)C[C@H](NC(=O)[C@H](C(C)C)N(C)C(=O)C1CCN(S(=O)(=O)[C@@H]3CN3C)CC1)C(=O)N1CCC[C@H](N1)C(=O)OCC(C)(C)C2 (single isomer, unassigned) = 10 to 100 nM
CCn1c(-c2cccnc2[C@H](C)OC)c2c3cc(ccc31)-c1cc(O)cc(c1)C[C@H](NC(=O)[C@H](C(C)C)N(C)C(=O)c1ccc([C@@H]3CN3)cc1)C(=O)N1CCC[C@H](N1)C(=O)OCC(C)(C)C2 = 10 to 100 nM
CCn1c(-c2cccnc2[C@H](C)OC)c2c3cc(ccc31)-c1cc(O)cc(c1)C[C@H](NC(=O)[C@H](C(C)C)N1CCC3(CCN(C(=O)[C@H]4CN4)C3)C1=O)C(=O)N1CCC[C@H](N1)C(=O)OCC(C)(C)C2 (some centres unmarked) = 10 to 100 nM
CCn1c(-c2cccnc2[C@H](C)OC)c2c3cc(ccc31)-c1cc(O)cc(c1)C[C@H](NC(=O)[C@H](C(C)C)N(C)C(=O)C1CC3(C1)CN(C(=O)[C@@H]1CN1)C3)C(=O)N1CCC[C@H](N1)C(=O)OCC(C)(C)C2 = 100 to 1000 nM

State the recorded IC50 for this entry: CCn1c(-c2cccnc2[C@H](C)OC)c2c3cc(ccc31)-c1csc(n1)C[C@H](NC(=O)[C@H](C(C)C)N(C)C(=O)N1CC(N(C)C(=O)[C@@H]3CN3)C1)C(=O)N1CCC[C@H](N1)C(=O)OCC(C)(C)C2 (atropisomer, axis not shown)
100 to 1000 nM

State the recorded IC50 for this entry: CCn1c(-c2cccnc2[C@H](C)OC)c2c3cc(ccc31)-c1cc(O)cc(c1)C[C@H](NC(=O)[C@H](C(C)C)N(C)C(=O)[C@@H]1CCCN(C(=O)[C@@H]3CN3)C1)C(=O)N1CCC[C@H](N1)C(=O)OCC(C)(C)C2
10 to 100 nM

State the recorded IC50 for this entry: CCn1c(-c2cccnc2[C@H](C)OC)c2c3cc(ccc31)-c1cc(O)cc(c1)C[C@H](NC(=O)[C@H](C(C)C)N(C)C(=O)[C@H]1CCCN(C(=O)[C@@H]3CN3)C1)C(=O)N1CCC[C@H](N1)C(=O)OCC(C)(C)C2
10 to 100 nM

* * *

- system tested: KRAS G12C (Homo sapiens, UniProt P01116+P62937, G12C)
- protocol: Disruption of BRAF RBD interaction with Ras (FRET / MOA assay, with Cyclophilin A)
- Assay type: biochemical
- assay conditions: KRAS G12C; read-out: KRAS G12C FRET data IC50
- Sequence (P01116 1-169 isoform P01116-2 G12C): as the sequence (P01116 1-169 isoform P01116-2 G12C limits assumed) above
- Sequence (P62937 whole entry): as the sequence (P62937 whole entry) above
pIC50: −log10 of the molar value.
measure: pIC50

Sample answers from the record:
C=CC(=O)N1CC[C@H](C(=O)N(C)[C@H](C(=O)N[C@H]2Cc3cc(O)cc(c3)-c3ccc4c(c3)c(c(-c3ccc(C5CCN(C)CC5)cc3)n4CC)CC(C)(C)COC(=O)[C@@H]3CCCN(N3)C2=O)C(C)C)C1 [Example A039] = 6.00 to 7.00
CCn1c(-c2cccnc2[C@H](C)OC)c2c3cc(ccc31)N1CCO[C@@](C)(CC(NC(=O)[C@H](C(C)C)N(C)C(=O)C3(F)CCN(C(=O)C#CC(C)(C)N(C)C)CC3)C(=O)N3CCC[C@H](N3)C(=O)OCC(C)(C)C2)C1 (some centres unmarked) [Example A550] = > 8.00
C=CC(=O)N1CCC(C(=O)N(C)[C@H](C(=O)N[C@H]2Cc3cc(O)cc(c3)-c3ccc4c(c3)c(c(-c3ccccc3CN(C)C)n4CC)CC(C)(C)COC(=O)[C@@H]3CCCN(N3)C2=O)C(C)C)CC1 [Example A033] = 6.00 to 7.00
C=CC(=O)N1CC(OC[C@H](C(=O)N[C@H]2Cc3cccc(c3)-c3ccc4c(c3)c(c(-c3cccnc3[C@H](C)OC)n4CC(F)(F)F)CC(C)(C)COC(=O)[C@@H]3CCCN(N3)C2=O)C(C)C)C1 [Example A453] = 5.00 to 6.00

State the recorded pIC50 for this entry: C=CC(=O)N1CC[C@@H](N(C)C(=O)N(C)[C@H](C(=O)N[C@H]2Cc3nc(cs3)-c3ccc4c(c3)c(c(-c3cccnc3[C@H](C)OC)n4CC(F)(F)F)CC(C)(C)COC(=O)[C@@H]3CCCN(N3)C2=O)C(C)C)C1 (atropisomer, axis not shown) [Example A728]
6.00 to 7.00

State the recorded pIC50 for this entry: CCn1c(-c2cccnc2[C@H](C)OC)c2c3cc(ccc31)-c1cccc(c1)C[C@H](NC(=O)[C@H](C(C)C)N1CC[C@]3(CCN(C(=O)C#C[C@]4(N(C)C)CCOC4)C3)C1=O)C(=O)N1CCC[C@H](N1)C(=O)OCC(C)(C)C2 [Example A559]
7.00 to 8.00

State the recorded pIC50 for this entry: CCn1c(-c2cccnc2[C@H](C)OC)c2c3cc(ccc31)-c1cccc(c1)C[C@H](NC(=O)[C@H](C(C)C)N(C)C(=O)N1CCC13CN(C(=O)C#CC(C)(C)N(C)C)C3)C(=O)N1CCC[C@H](N1)C(=O)OCC(C)(C)C2 (atropisomer, axis not shown) [Example A717]
6.00 to 7.00

State the recorded pIC50 for this entry: C=CC(=O)N1CC[C@H](C(=O)N(C)[C@H](C(=O)N[C@H]2Cc3cc(O)cc(c3)-c3ccc4c(c3)c(c(-c3ccnc5c3[C@@H](OC)CC5)n4CC)CC(C)(C)COC(=O)[C@@H]3CCCN(N3)C2=O)C(C)C)C1 [Example A275]
7.00 to 8.00
